# study_target: GRID2IP_2, A4D2P6
# Sequence (A4D2P6 272-370): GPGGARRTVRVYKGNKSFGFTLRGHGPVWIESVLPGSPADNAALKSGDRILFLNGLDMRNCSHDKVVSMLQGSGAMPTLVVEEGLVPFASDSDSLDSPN
# protocol_notes: holdup assay
# Design: key: below the threshold = too weak to quantify, mostly under pKd 3.1 to 4
# assay_conditions: plain residues with an end cap or a label only (N-terminal biotin on a linker: ado-ado)

| binder | pKd |
| --- | --- |
| VRNLPESEEL [MYOZ3, Q8TDC0] | below the threshold |
| EVNETDDTKM [KCNJ1, P48048] | below the threshold |
| EKKTLIGIKL [GOT1L1, Q8NHS2] | below the threshold |

Data origin, for the record: paper PMC9482650
